# System: SARS-CoV-2 (USA_WA1/2020)
# PROCEDURE TEXT: microbe, parasite or virus in culture
# Format: cell-based
# COND: SARS-CoV-2 CPE assay, Vero E6 cells; read-out: CPE EC50
PARAMETER: pEC50
Give bare numbers, as −log10 of the molar value.

Consider the worked cases shown below.
{"columns": ["MOLECULE", "pEC50"],
 "data": [
  ["COc1ccc2c(c1)c(CCN(C)C)cn2S(=O)(=O)c1ccccc1.O=C(O)C(=O)O [MS 245 oxalate]", 4.90],
  ["Cl.Cl.O=S(=O)(c1cccc2ccccc12)n1ccc2ccc(N3CCN4CCCC4C3)cc21 (stereo not shown) [NPS ALX Compound 4a dihydrochloride]", 4.90],
  ["Cc1ncc(NC(=O)c2cccc(C(F)(F)F)c2)cc1-c1cnc(OC2CCOCC2)c(N2CCOCC2)c1", 4.85],
  ["CC(CN(C)C)CN1c2ccccc2Sc2ccccc21.CC(CN(C)C)CN1c2ccccc2Sc2ccccc21.O=C(O)C(O)C(O)C(=O)O (stereo not shown) [Trimeprazine tartrate]", 4.90],
  ["Cc1nc2ccc(Oc3ccc(F)cc3)cc2c(=O)n1C[C@H]1CCCN(C(C)C)C1", 4.95]
]}

Kindly give each listed record's pEC50.
1. Cc1cc(N2CCN(C(=O)Oc3ccc(-c4ccccc4)cn3)CC2)c2ccccc2n1
2. Cc1c(CCOc2ccc(C(=O)O)cc2)c2cc(Cl)ccc2n1C(c1ccccc1)c1ccccc1

1: 4.90; 2: 4.85

* * *

# System: Vero E6 cells
# COND: read-out: Cytotox CC50; cytotoxicity counter-assay, Vero E6 cells without virus
PARAMETER: CC50 (µM)
Answers are plain numbers, in µM.

{"columns": ["COMPOUND", "CC50 / µM"],
 "data": [
  ["C/C=C(/C)C(=O)O[C@H]1[C@@H]2[C@H](C)C(=O)O[C@@H]2C[C@@H](C)[C@@H]2C=CC(=O)[C@]21C", 11.2],
  ["COc1cc(C(=O)NC(=N)Nc2ccc(C)c(NC(=O)c3ccc(-c4ccccc4)cc3)c2)cc(OC)c1OC", 10],
  ["COc1ccc2sc(NC(c3ccc(OC(F)F)cc3)c3ccc4cccnc4c3O)nc2c1 (stereo not shown)", 0.71]
]}

Now look at this entry.
Measured CC50 (Vero E6 cells), entry `O=C(N[C@@H](c1ccccc1)[C@@H]1CCCCN1)c1cccc(C(F)(F)F)c1Cl` : 7.94

* * *

For each record, write down the corresponding EC50.
# System: SARS-CoV-2 (USA_WA1/2020)
# PROCEDURE TEXT: microbe, parasite or virus in culture
# Type: cell-based
# COND: SARS-CoV-2 CPE assay, Vero E6 cells; read-out: CPE EC50
One number for each entry, in µM.

Consider the worked cases shown below.
{"columns": ["COMPOUND", "ASSAY TARGET", "PARAMETER", "VALUE OBSERVED"],
 "data": [
  ["CO[C@@H]1[C@@H](O[C@@H]2O[C@H](C)[C@@H](O[C@H]3C[C@@](C)(O)[C@@H](O)[C@H](C)O3)[C@H](N(C)C)[C@H]2O)[C@@H](CC=O)C[C@@H](C)[C@@H](O[C@H]2CC[C@H](N(C)C)[C@@H](C)O2)/C=C/C=C/C[C@@H](C)OC(=O)C[C@H]1OC(C)=O", "SARS-CoV-2 (USA_WA1/2020)", "EC50", 14.1],
  ["Cc1nc(C)c(CN2CCN(C(c3ccc(F)cc3)c3ccc(F)cc3)CC2)nc1C", "SARS-CoV-2 (USA_WA1/2020)", "EC50", 12.6],
  ["Cn1cc(-c2ccc(-c3cncc(Cl)c3N3CCC4(CCNC4=O)CC3)cc2)cn1", "SARS-CoV-2 (USA_WA1/2020)", "EC50", 14.1],
  ["CC(C)c1onc(-c2c(Cl)cccc2Cl)c1COc1ccc(/C=C/c2cccc(C(=O)O)c2)c(Cl)c1 [GW-4064X]", "SARS-CoV-2 (USA_WA1/2020)", "EC50", 12.6],
  ["O=C(NCCCN1CCN(c2ccccc2F)CC1)c1ccc2nc(Cc3ccccc3)oc2c1", "SARS-CoV-2 (USA_WA1/2020)", "EC50", 14.1]
]}

Kindly give each listed record's EC50.
1. O=S(=O)(c1cccc2c(I)cccc12)N1CCCNCC1
2. CCc1ccccc1OC[C@@H](O)CN[C@H]1CCCc2ccccc21.Cl [SR 59230A hydrochloride]
3. CS(=O)(=O)O.Cc1ncc(NC(=O)c2ccc(CN3CCN(C)CC3)c(C(F)(F)F)c2)cc1Nc1nccc(-c2cccnc2)n1 [Flumatinib mesylate]

1: 12.6; 2: 11.2; 3: 12.6

Where do the numbers come from? From paper PMC7942396.
